Please respond with reported protein stability index for every item in the list.
B1: HSP90AB1 (parent)
chain: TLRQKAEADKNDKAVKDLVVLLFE

- Variants of: B1
- procedure summary: protein stability index of a GFP-peptide fusion (GPS, HEK-293T) (PSI 1-6); higher = more stable;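 also: lentivirally expressed fusions sorted by FACS into six bins by GFP to DsRed ratio, PSI derived from sequencing read proportions per bin multiplied by bin number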
- test parameters: c terminus: a fixed tail appended
Give your answer as a number; write no unit.

IN: What value of protein stability index has been recorded for this entry: TLRQMAEADKNDKAVKDLVVLLFE [K5M]
OUT: 3.48

IN: What value of protein stability index has been recorded for this entry: TLRQKAEADKNDKAVKDFVVLLFE [L18F]
OUT: 2.24

IN: What value of protein stability index has been recorded for this entry: TLRQKAEADKNDKASKDLVVLLFE [V15S]
OUT: 3.09

IN: What value of protein stability index has been recorded for this entry: TERQKAEADKNDKAVKDLVVLLFE [L2E]
OUT: 3.01

IN: What value of protein stability index has been recorded for this entry: TLRQKAEADKNDKAVKCLVVLLFE [D17C]
OUT: 1.83

IN: What value of protein stability index has been recorded for this entry: TLRQKAEADKNDKAVKILVVLLFE [D17I]
OUT: 2.35
